Experiment: Cytotoxicity against human RPMI8226 cells assessed as growth level at 10 uM after 48 hrs by SRB assay
Format: functional, RPMI-8226
Property Label: Activity

Answered examples (4):
| Compound | Property Label | Result |
| --- | --- | --- |
| C=C1CC[C@@H]2[C@](C)(COC(C)=O)[C@H](OC(C)=O)CC[C@@]2(C)[C@@H]1CC(NCc1cccc(Cl)c1)C1=CCOC1=O (mixture of isomers) | Activity | 27.25% |
| C=C1CC[C@@H]2[C@](C)(COC(C)=O)[C@H](OC(C)=O)CC[C@@]2(C)[C@@H]1CC(NC1CCCC1)C1=CCOC1=O (some centres not stated) | Activity | 37.5% |
| C=C1CC[C@@H]2[C@](C)(COC(C)=O)[C@H](OC(C)=O)CC[C@@]2(C)[C@@H]1CC(NC1CC1)C1=CCOC1=O (mixture of isomers) | Activity | 70.32% |
| C=C1CC[C@@H]2[C@](C)(CO)[C@H](O)CC[C@@]2(C)[C@@H]1C/C=C1/C(=O)OC[C@H]1O [ANDROGRAPHOLIDE] | Activity | 83.28% |

For the compound C=C1CC[C@@H]2[C@](C)(COC(C)=O)[C@H](OC(C)=O)CC[C@@]2(C)[C@@H]1C/C=C1/C(=O)OC[C@H]1OC(C)=O , give its reported Activity.
14.12%

For the compound C=C1CC[C@@H]2[C@](C)(COC(C)=O)[C@H](OC(C)=O)CC[C@@]2(C)[C@@H]1CC(NCc1ccc(F)cc1)C1=CCOC1=O (mixture of isomers) , report Activity.
1.27%

Supply Activity value. Item: C=C1CC[C@@H]2[C@](C)(COC(C)=O)[C@H](OC(C)=O)CC[C@@]2(C)[C@@H]1CC(NCCCCCCCC)C1=CCOC1=O (mixture of isomers)
35.98%
